Target: T1, FoxM1-DBD (FoxM1C 222-360) (UniProt Q08050 222-360)
T1 sequence: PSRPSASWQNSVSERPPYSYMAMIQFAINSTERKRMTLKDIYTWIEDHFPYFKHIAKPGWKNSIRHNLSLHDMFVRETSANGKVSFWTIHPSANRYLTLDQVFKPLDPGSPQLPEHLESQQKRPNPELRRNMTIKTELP
Assay: competition fluorescence anisotropy
measurementKind: pIC50
Kindly note that pIC50 refers to -log10 of the concentration in mol/L and answer with the value alone.

Assign pIC50 to the following record: 1x (dsDNA) DNA 1: CCGATTGTTTAGCCCGTGCC DNA 2: GGCACGGGCTAAACAATCGG 5.15

Reference source for all entries: paper PMC2910063
